- assay_summary: Pharmacokinetic evaluation of prodrugs in rats following intramuscular injection
- Assay type: in vivo, Male Sprague-Dawley rats
- test_settings: rat, IM injection; crystalline suspension or oil emulsion
property_label: AUC0-T (ng·days/mL)

compound: CCCCCCCCCCCCCCCC(=O)OCN1C(=O)CCc2ccc(OCCCCN3CCN(c4cccc(Cl)c4Cl)CC3)cc21 [Compound 10]
AUC0-T (ng·days/mL): 786.6

a = CC(=O)OCN1C(=O)CCc2ccc(OCCCCN3CCN(c4cccc(Cl)c4Cl)CC3)cc21 [Compound 1]
b = CNC(=O)OCN1C(=O)CCc2ccc(OCCCCN3CCN(c4cccc(Cl)c4Cl)CC3)cc21 [Compound 47]
Exercise: Given the listed items, does a or b have the lesser reported AUC0-T? Bench note: the answer is the label of the chosen record.
Key: b
